- TARGET OR SYSTEM: T1, human PD-L1 wild type (glycosylated), expressed on cells (human, UniProt Q9NZQ7 19-290, N-glycosylated at N35, N192, N200 and N219)
- T1 construct: Endogenous on NCI-H226, A431 and MDA-MB231 cells and transfected into 4T1 cells in the functional assays; In the Western blots the protein was in cell lysate; also called PD-L1 WT; WT PD-L1
- T1 sequence (Q9NZQ7 19-290): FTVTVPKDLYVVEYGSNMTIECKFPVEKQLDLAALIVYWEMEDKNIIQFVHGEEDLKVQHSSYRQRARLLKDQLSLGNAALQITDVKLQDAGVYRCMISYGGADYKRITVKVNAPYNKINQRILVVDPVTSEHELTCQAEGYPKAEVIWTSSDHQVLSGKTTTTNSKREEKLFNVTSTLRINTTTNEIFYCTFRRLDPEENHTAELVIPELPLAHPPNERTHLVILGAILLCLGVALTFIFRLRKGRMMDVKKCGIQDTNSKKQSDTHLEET
- ASSAY NAME: flow cytometry on BT549 cells overexpressing PD-L1 WT (biotin labeled, mixed with 4NQ cells), FITC secondary antibody
VALUE KIND: MFI

get_value(item= STM004 MAb (antibody, V domains shown) VH: QVQLQQSDAELVKPGASVKISCKASGYTFSDHAIHWVKQRPEQGLEWIGCISPGSGDITYNEKFKGKATLTADKSSSTAYMQLNSLTSEDSAVYFCKRWGLDYWGQGTTLTVSS VL: DIVLTQSPASLAVSLGQRATISCRASESVEFYGTTLMQWYQQKPGQPPRLLIYAASNVESGVPARFSGSGSGTDFSLNIHPVEDDDIAMYFCQQSRKVPYTFGGGTKLEIK , readout=MFI) returns 42.5

Origin of the recorded values: patent US20190105403A1
